target: xanthine oxidase (XOD) (Bos taurus, UniProt P80457); construct: purchased Sigma Aldrich (Gillingam, Dorset, U.K.); assay: Xanthine oxidase inhibition assay (uric acid formation); type: biochemical
Sequence (P80457 2-1332 limits assumed): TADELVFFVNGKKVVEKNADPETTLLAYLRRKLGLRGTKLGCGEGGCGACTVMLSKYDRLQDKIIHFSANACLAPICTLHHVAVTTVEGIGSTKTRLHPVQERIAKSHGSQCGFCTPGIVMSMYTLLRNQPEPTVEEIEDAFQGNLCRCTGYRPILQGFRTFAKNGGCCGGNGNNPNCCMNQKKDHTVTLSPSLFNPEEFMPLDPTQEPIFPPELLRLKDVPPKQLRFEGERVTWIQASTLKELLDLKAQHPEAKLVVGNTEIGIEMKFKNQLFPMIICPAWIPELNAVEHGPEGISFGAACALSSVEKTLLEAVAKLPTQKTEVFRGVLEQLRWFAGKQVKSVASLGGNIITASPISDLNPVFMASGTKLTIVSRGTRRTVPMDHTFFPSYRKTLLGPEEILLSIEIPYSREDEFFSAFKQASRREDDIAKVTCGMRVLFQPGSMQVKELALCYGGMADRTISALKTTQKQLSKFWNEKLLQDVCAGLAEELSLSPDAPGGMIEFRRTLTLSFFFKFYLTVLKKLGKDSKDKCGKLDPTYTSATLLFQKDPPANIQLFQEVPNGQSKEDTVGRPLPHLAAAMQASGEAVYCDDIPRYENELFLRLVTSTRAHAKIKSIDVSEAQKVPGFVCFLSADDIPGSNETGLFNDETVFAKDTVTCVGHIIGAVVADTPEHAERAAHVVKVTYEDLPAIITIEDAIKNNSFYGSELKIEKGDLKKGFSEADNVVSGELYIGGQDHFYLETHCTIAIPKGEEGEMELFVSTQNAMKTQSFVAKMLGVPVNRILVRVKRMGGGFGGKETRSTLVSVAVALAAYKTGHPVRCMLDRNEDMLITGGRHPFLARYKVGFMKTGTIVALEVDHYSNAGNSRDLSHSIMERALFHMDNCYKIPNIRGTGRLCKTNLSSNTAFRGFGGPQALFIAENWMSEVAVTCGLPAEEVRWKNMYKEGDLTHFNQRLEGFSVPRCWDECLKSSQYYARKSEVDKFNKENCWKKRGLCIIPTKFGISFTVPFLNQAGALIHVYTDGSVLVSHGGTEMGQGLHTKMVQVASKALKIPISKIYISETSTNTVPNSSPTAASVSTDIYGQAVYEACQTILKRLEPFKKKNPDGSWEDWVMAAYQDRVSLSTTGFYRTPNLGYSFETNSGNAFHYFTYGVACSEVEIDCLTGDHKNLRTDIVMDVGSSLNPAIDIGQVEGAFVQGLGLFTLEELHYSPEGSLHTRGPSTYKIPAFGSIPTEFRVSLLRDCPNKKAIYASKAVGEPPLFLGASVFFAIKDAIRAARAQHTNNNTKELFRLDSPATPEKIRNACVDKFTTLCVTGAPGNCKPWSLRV
Measured parameter: activity as direct inhibitor of xanthine oxidase (in words)

Solved entries (count: 5):
COc1cc(CCc2ccc(O)cc2)c(C(=O)O)c(OC(C)=O)c1    moderate activity
COc1cc(O)cc(CCc2ccc(O)cc2)c1 [Compound 6, 3,12-dihydroxy-5-methoxybibenzyl]    no activity
COc1ccc(CCc2cc(OC)cc(O)c2C(=O)O)cc1    moderate activity
COc1cc(CCc2ccc(O)cc2)cc(Oc2ccc(CCc3cc(OC)cc(O)c3C(=O)O)cc2)c1    no activity
COc1cc(CCc2ccc(Oc3cc(CCc4ccc(Oc5cc(CCc6ccc(O)cc6)c(C(=O)O)c(OC)c5)cc4)c(C(=O)O)c(OC)c3)cc2)c(C(=O)O)c(OC)c1    no activity

Let's switch to this molecule now.
Q: Find the recorded activity as direct inhibitor of xanthine oxidase (in words) belonging to COc1cc(O)c(C(=O)O)c(CCc2ccc(O)cc2)c1 and report it.
Result: no activity

---

Reported Linoleic acid autoxidation inhibition (AA), 2 h values for the following compounds.
assay: Coupled oxidation of β-carotene and linoleic acid (linoleic acid autoxidation assay); settings: t = 120 min; 15 µg/mL; β-carotene bleaching, 50 °C
State just the number; it will be interpreted in %.

Q: Find the recorded Linoleic acid autoxidation inhibition (AA), 2 h belonging to Cc1cc(C(C)(C)C)c(O)c(C(C)(C)C)c1 [BHT, 2,6 di-tert-butyl-4-methylphenol, reference compound] and report it.
Result: 51.07

Q: Find the recorded Linoleic acid autoxidation inhibition (AA), 2 h belonging to COc1cc(CCc2ccc(O)cc2)cc(Oc2ccc(CCc3cc(OC)cc(O)c3C(=O)O)cc2)c1 [Compound 3] and report it.
Result: 0

Q: Find the recorded Linoleic acid autoxidation inhibition (AA), 2 h belonging to COc1cc(CCc2ccc(O)cc2)c(C(=O)O)c(OC(C)=O)c1 [Compound 2] and report it.
Result: 19.16

Q: Find the recorded Linoleic acid autoxidation inhibition (AA), 2 h belonging to COc1cc(O)cc(CCc2ccc(O)cc2)c1 [Compound 6, 3,12-dihydroxy-5-methoxybibenzyl] and report it.
Result: 7.31

---

test: Superoxide anion enzymatic generation assay (xanthine/xanthine oxidase, NBT reduction); assay type: biochemical; details: xanthine/XOD system, 560 nm, mean ± SD, read-out: Superoxide anion scavenging activity IC50
Reported IC50 values for the following compounds.
# output: number + unit

Solved entries (count: 5):
COc1cc(CCc2ccc(Oc3cc(CCc4ccc(Oc5cc(CCc6ccc(O)cc6)c(C(=O)O)c(OC)c5)cc4)c(C(=O)O)c(OC)c3)cc2)c(C(=O)O)c(OC)c1    81.3 µM
COc1ccc(CCc2cc(OC)cc(O)c2C(=O)O)cc1    58.4 µM
COc1cc(O)cc(CCc2ccc(O)cc2)c1 [Compound 6, 3,12-dihydroxy-5-methoxybibenzyl]    83.3 µM
COc1cc(CCc2ccc(O)cc2)c(C(=O)O)c(OC(C)=O)c1    81.1 µM
Oc1ccc(CCc2cc(O)cc(O)c2)cc1 [Dihydroresveratrol, reference compound]    60.9 µM

Q: Find the recorded IC50 belonging to COc1cc(CCc2ccc(O)cc2)cc(Oc2ccc(CCc3cc(OC)cc(O)c3C(=O)O)cc2)c1 and report it.
Result: 78.2 µM

Q: Find the recorded IC50 belonging to COc1cc(O)c(C(=O)O)c(CCc2ccc(O)cc2)c1 and report it.
Result: 96.9 µM

---

Reported IC50 values for the following compounds.
biological target: xanthine oxidase (XOD) (Bos taurus)

Solved entries (count: 3):
COc1cc(CCc2ccc(O)cc2)cc(Oc2ccc(CCc3cc(OC)cc(O)c3C(=O)O)cc2)c1    > 100 µM
Oc1ccc(CCc2cc(O)cc(O)c2)cc1 [Dihydroresveratrol, reference compound]    > 100 µM
COc1ccc(CCc2cc(OC)cc(O)c2C(=O)O)cc1    64 µM

Let's switch to this compound now.
Q: Record lookup: for xanthine oxidase (XOD) (Bos taurus), what IC50 belongs to COc1cc(O)cc(CCc2ccc(O)cc2)c1 [Compound 6, 3,12-dihydroxy-5-methoxybibenzyl] ?
Result: > 100 µM

---

test: Coupled oxidation of β-carotene and linoleic acid (linoleic acid autoxidation assay); details: t = 120 min; 15 µg/mL; β-carotene bleaching, 50 °C
Reported Linoleic acid autoxidation inhibition (AA), 2 h values for the following compounds.
State just the number; it will be interpreted in %.

Solved entries (count: 3):
COc1cc(CCc2ccc(Oc3cc(CCc4ccc(Oc5cc(CCc6ccc(O)cc6)c(C(=O)O)c(OC)c5)cc4)c(C(=O)O)c(OC)c3)cc2)c(C(=O)O)c(OC)c1    0
COc1cc(O)c(C(=O)O)c(CCc2ccc(O)cc2)c1    11.70
COc1ccc(CCc2cc(OC)cc(O)c2C(=O)O)cc1    19.72

Let's switch to this compound now.
Q: Find the recorded Linoleic acid autoxidation inhibition (AA), 2 h belonging to Oc1ccc(CCc2cc(O)cc(O)c2)cc1 [Dihydroresveratrol, reference compound] and report it.
Result: 20.12

Cited source for all entries: paper PMC6259833
